ASSAY_DETAILS: Extended room temperature storage of treprostinil monohydrate lot D-1007-089 (18-month stability summary: water content, assay/impurity profile)
Type: physicochemical
PARTICULARS: 12 Months, Container 2 (covered with Kimwipe), room temperature
ENDPOINT_NAME: 750W93
Answer with the number, then the unit.

Prompt: What 750W93 value was documented for this compound, CCCCC[C@H](O)CC[C@@H]1[C@H]2Cc3cccc(OCC(=O)O)c3C[C@H]2C[C@H]1O [TREPROSTINIL Lot# D-1007-089, treprostinil monohydrate] ?
Response: 0.09%

###

ASSAY_DETAILS: Extended room temperature storage of treprostinil monohydrate lot D-1007-089 (18-month stability summary: water content, assay/impurity profile)
Assay type: physicochemical
PARTICULARS: 18 Month, Container 1 (closed), room temperature
ENDPOINT_NAME: TREPROSTINIL Ethyl Ester
Answer with the number, then the unit.

Prompt: What TREPROSTINIL Ethyl Ester value was documented for this compound, CCCCC[C@H](O)CC[C@@H]1[C@H]2Cc3cccc(OCC(=O)O)c3C[C@H]2C[C@H]1O [TREPROSTINIL Lot# D-1007-089, treprostinil monohydrate] ?
Response: 0.2%
